experiment: chemical genetic growth profiling, strain panel (AID 1159580);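 also: tested at 20 µM; growth read once vehicle control cultures reached saturation at 30 °C; 1 = growth at the plate median or of vehicle wells; lower values mean less growth of the strain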; conditions: S. cerevisiae deletion strains, growth OD, locus YDL005C, strain med2, stronger effect = lower value
Hit rate of the full screen: of about 5,500 compounds, about 2,000 (36%) were called active. Roughly 18% stayed inconclusive and do not appear here. This is one part of the list.
Listed compounds paired with reported normalized growth
Reported property: normalized growth

>>> df
                                   compound  readout_value
0  CC1(C)C(=O)C=C[C@@]2(C)C1C=C[C@]1(C)C2CC[C@@]2(C)[C@H](c3ccoc3)OC(=O)C3OC321 (stereo not given in full)          0.988
1  CC1(C)C=CC(=O)[C@@]2(C)C1CC(=O)[C@]1(C)C2CC[C@@]2(C)[C@H](c3ccoc3)OC(=O)C3OC321 (stereo not given in full)          0.996
2                        CCc1cc(C(N)=S)ccn1              1
3  COc1ccc(-c2cc(=O)c3c(O)cc(O[C@@H]4O[C@H](CO[C@H]5O[C@H](C)[C@@H](O)[C@H](O)[C@@H]5O)[C@@H](O)[C@H](O)[C@H]4O)cc3o2)cc1O           1.02
4  CC1(C)C(=O)C=C[C@@]2(C)C1CC(=O)[C@]1(C)C2CC[C@@]2(C)[C@H](c3ccoc3)OC(=O)[C@H]3O[C@]321 (stereo not given in full)          0.977
5  CC(C)c1c(O)ccc2c1CCC1[C@@](C)(C=O)CCC[C@]21C (stereo not given in full)           1.01
6  CC[n+]1c(-c2ccccc2)c2cc(N)ccc2c2ccc(N)cc21           0.99
7  CC1(C)C2CC(=O)[C@]3(C)C(CC[C@@]4(C)[C@H](c5ccoc5)OC(=O)C5OC543)[C@@]2(C)[C@@H](O)C[C@H]1O (stereo not given in full)              1
8  N#Cc1nn(-c2c(Cl)cc(C(F)(F)F)cc2Cl)c(N)c1S(=O)C(F)(F)F (stereo not given)          0.987
9  CC1(C)C(=O)C=C[C@@]2(C)C1C[C@@H](O)[C@]1(C)C2CC[C@@]2(C)[C@H](c3ccoc3)OC(=O)[C@H]3O[C@]321 (stereo not given in full)          0.999

====

experiment: chemical genetic growth profiling, strain panel (AID 1159580);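 also: tested at 20 µM; growth read once vehicle control cultures reached saturation at 30 °C; 1 = growth at the plate median or of vehicle wells; lower values mean less growth of the strain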; settings: S. cerevisiae deletion strains, growth OD, locus YDL040C, strain nat1, stronger effect = lower value
Out of some 5,500 compounds screened, about 2,000 (36%) were called active. Not shown: some 18% with an inconclusive outcome. Some of the results follow.
Reported property: normalized growth

>>> df
                                   molecule  reported_property  readout_value
0    O=C(O)C1=C[C@@H](O)[C@@H](O)[C@H](O)C1  normalized growth          0.987
1  C=CC1C2=CCOC(=O)C2=COC1OC1OC(CO)C(O)C(O)C1O (stereo not given)  normalized growth           1.02
2                 COc1cc2occc2c2oc(=O)ccc12  normalized growth           1.02
3  COc1cc(O)c2c(=O)c(O)c(-c3ccc(O)c(O)c3)oc2c1  normalized growth          0.988
4                  O=c1ccc2c(O)c3ccoc3cc2o1  normalized growth           0.99
5  N#Cc1nn(-c2c(Cl)cc(C(F)(F)F)cc2Cl)c(N)c1S(=O)C(F)(F)F (stereo not given)  normalized growth          0.982
6                 COc1c2ccoc2cc2oc(=O)ccc12  normalized growth          0.992
7  NS(=O)(=O)c1cc(C2(O)NC(=O)c3ccccc32)ccc1Cl (stereo not given)  normalized growth          0.995
8  CC(C)(C)NCC(O)c1cc(Cl)c(N)c(Cl)c1 (stereo not given)  normalized growth          0.988
9  CCCC(C)(COC(N)=O)COC(=O)NC(C)C (stereo not given)  normalized growth              1

====

assay: chemical genetic growth profiling, strain panel (AID 1159580);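 also: tested at 20 µM; growth read once vehicle control cultures reached saturation at 30 °C; 1 = growth at the plate median or of vehicle wells; lower values mean less growth of the strain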; conditions: S. cerevisiae deletion strains, growth OD, locus YER111C, strain swi4, stronger effect = lower value
In all, about 5,500 compounds went through this assay and about 2,000 (36%) were called active. About 18% were inconclusive and are not listed. The list shows a part of the results.
Listed compounds paired with reported normalized growth

Compound	normalized growth
CC(=O)Oc1ccc2c(c1OC(C)=O)OCC1(O)Cc3c(cc(OC(C)=O)c(OC(C)=O)c3OC(C)=O)C21 (configuration not stated)	0.999
C[C@]12C=CC(=O)C=C1CCC1C2[C@@H](O)C[C@@]2(C)C1CC[C@]2(O)C(=O)COP(=O)(O)O (some centres not stated)	0.998
C[C@@H]1O[C@@H](OC[C@H]2OC(Oc3c(-c4ccc(O)c(O)c4)oc4cc(O)cc(O)c4c3=O)[C@H](O)[C@@H](O)[C@@H]2O)[C@H](O)[C@H](O)[C@H]1O (some centres not stated)	0.994
O=c1c(O)c(-c2ccc(O)c(O)c2)oc2c(O[C@@H]3O[C@H](CO)[C@H](O)[C@@H](O)[C@H]3O)c(O)cc(O)c12	1.01
CNC(C)C(O)c1ccccc1 (configuration not stated)	1.01
NC(=O)NCCCC(N)C(=O)O (configuration not stated)	1
COc1ccc(-c2cc(=O)c3c(O)cc(O[C@@H]4O[C@H](CO[C@H]5O[C@H](C)[C@@H](O)[C@H](O)[C@@H]5O)[C@@H](O)[C@H](O)[C@H]4O)cc3o2)cc1O	1

====

experiment: chemical genetic growth profiling, strain panel (AID 1159580);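 also: tested at 20 µM; growth read once vehicle control cultures reached saturation at 30 °C; 1 = growth at the plate median or of vehicle wells; lower values mean less growth of the strain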; settings: S. cerevisiae deletion strains, growth OD, locus YJL095W, strain BCK1 (second series)
About 2,000 (36%) of roughly 5,500 compounds were called active. Inconclusive results (about 18%) are left out. Rule as the data show it: active = normalized growth mostly below about 0.91 (no sharp cut-off); inconclusive = no clear call, values can overlap the other calls; inactive = mostly above about 0.92. This is one part of the list.
Possible outcomes: active, inactive

In [3]: df
Out[3]:
                                    molecule  answer_label
 0  COc1ccc2c(c1)CCC1C2CC[C@@]2(C)C1CC[C@@H]2O (some centres undefined)        active
 1  CC(C)N(CCC(C(N)=O)(c1ccccc1)c1ccccn1)C(C)C (centres undefined)        active
 2  CC(=O)[C@@]1(O)CCC2C3C[C@H](C)C4=CC(=O)C=CC4(C)[C@@]3(F)[C@@H](O)C[C@@]21C (some centres undefined)      inactive
 3  CC1(C)C(=O)C=C[C@@]2(C)C1C[C@@H](O)[C@]1(C)C2CC[C@@]2(C)[C@H](c3ccoc3)OC(=O)[C@H]3O[C@]321 (some centres undefined)      inactive
 4  CC(=O)Oc1ccc2c(c1C(C)C)CCC1C(C)(C)CCC[C@]21C (some centres undefined)      inactive
 5  COC(=O)[C@@]1(C)CCC[C@]2(C)c3ccc(O)c(C(C)C)c3CCC12 (some centres undefined)        active
 6  COc1ccc(-c2cc(=O)c3c(O)cc(O[C@H]4O[C@H](CO[C@@H]5O[C@@H](C)[C@H](O)[C@@H](O)[C@H]5O)[C@@H](O)[C@H](O)[C@H]4O)cc3o2)cc1      inactive
 7                 COc1c2ccoc2cc2oc(=O)ccc12      inactive
 8      CCCCOc1cc(C(=O)NCCN(CC)CC)c2ccccc2n1      inactive
 9  CC1(C)C(=O)C=C[C@@]2(C)C1CC(=O)[C@]1(C)C2CC[C@@]2(C)[C@H](c3ccoc3)OC(=O)[C@H]3O[C@]321 (some centres undefined)      inactive
10  CC1(C)C2CC(=O)[C@]3(C)C(CC[C@@]4(C)[C@H](c5ccoc5)OC(=O)C5OC543)[C@@]2(C)[C@@H](O)C[C@H]1O (some centres undefined)      inactive
11  COc1ccc2c(c1)CCC1C2CCC2(C)C1C[C@@H](O)C2O (some centres undefined)      inactive
12                      COc1ccc2ccc(=O)oc2c1      inactive
13  NC(=O)NCCCC(N)C(=O)O (centres undefined)      inactive
14  CC(C)c1c(O)ccc2c1CCC1[C@@](C)(C=O)CCC[C@]21C (some centres undefined)        active
15  COc1cc(OC)c2c(=O)c(O)c(-c3ccc(OC)c(OC)c3)oc2c1        active
16  CCCCCc1c2c(cc(O)c1C(=O)O)OC(=O)c1c(cc(OC)cc1C(=O)CCCC)O2      inactive
17  CC(C)c1c(O)ccc2c1CCC1[C@@](C)(CO)CCC[C@]21C (some centres undefined)      inactive
18  COc1cc(O)c2c(=O)c(O)c(-c3ccc(O)c(O)c3)oc2c1        active
19  CC1(C)C=CC(=O)[C@@]2(C)C1CC(=O)[C@]1(C)C2CC[C@@]2(C)[C@H](c3ccoc3)OC(=O)C3OC321 (some centres undefined)      inactive
20  COc1cc(OC)c2c(=O)c(OC)c(-c3ccc(OC)c(OC)c3)oc2c1      inactive
21  CC1O[C@@H](Oc2c(-c3ccc(O)c(O)c3)oc3cc(O)cc(O)c3c2=O)[C@H](O)[C@H](O)[C@H]1O (some centres undefined)      inactive
22    CNC(C)C(O)c1ccccc1 (centres undefined)      inactive
23  O=c1c(O)c(-c2ccc(O)cc2O)oc2cc(O)cc(O)c12      inactive
24                Cc1cc(C2CCCCC2)n(O)c(=O)c1        active
25  NC(=O)c1ncn([C@@H]2O[C@H](CO)[C@@H](O)[C@H]2O)n1      inactive
26  O=c1cc(-c2ccc(O)cc2)oc2cc(O[C@@H]3O[C@H](CO)[C@@H](O)[C@H](O)[C@H]3O)cc(O)c12      inactive
27                 COc1cc2occc2c2oc(=O)ccc12      inactive
28  C[C@]12CCC3c4ccc(O)cc4CCC3C1C[C@@H](O)[C@@H]2O (some centres undefined)      inactive
